- Assay target: human α7 nicotinic acetylcholine receptor (HEK cell line stably expressing human RIC-3 and human α7) (Homo sapiens, UniProt P36544)
- Construct: host or cells: HEK cell line (PrecisION hnAChR α7/RIC-3)
- Sequence (P36544 23-502): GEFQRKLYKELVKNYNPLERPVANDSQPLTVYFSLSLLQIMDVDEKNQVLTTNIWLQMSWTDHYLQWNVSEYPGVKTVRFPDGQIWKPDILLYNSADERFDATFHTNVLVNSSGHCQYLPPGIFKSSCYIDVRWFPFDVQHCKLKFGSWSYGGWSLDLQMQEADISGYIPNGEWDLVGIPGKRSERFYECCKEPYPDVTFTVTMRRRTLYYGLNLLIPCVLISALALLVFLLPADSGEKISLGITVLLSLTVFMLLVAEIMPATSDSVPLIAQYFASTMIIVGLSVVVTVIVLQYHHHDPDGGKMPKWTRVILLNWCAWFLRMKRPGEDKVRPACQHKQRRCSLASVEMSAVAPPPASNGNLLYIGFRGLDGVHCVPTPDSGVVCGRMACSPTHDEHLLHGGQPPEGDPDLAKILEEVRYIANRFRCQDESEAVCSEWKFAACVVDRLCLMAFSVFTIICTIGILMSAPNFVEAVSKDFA
- Protocol: Automated patch-clamp electrophysiology functional assay (Assay A), IonFlux HT, whole-cell population patch
- Format: cell-based
- Conditions: automated patch-clamp electrophysiology functional assay (Assay A); read-out: α7 nAChR EC50
Measured endpoint: EC50 (nM)

Cc1cnc(OC(F)F)cc1-c1nc([C@@H]2C(F)(F)C23CCN(S(N)(=O)=O)CC3)no1
73
Cn1ncc(-c2nc([C@@H]3C(F)(F)C34CCN(S(N)(=O)=O)CC4)no2)c1C(F)(F)F
270
NS(=O)(=O)N1CCC2(CC1)[C@H](c1cc(-c3ccc(F)cc3C(F)(F)F)ns1)C2(F)F
120

A = Cc1ccccc1-c1nnc([C@@H]2C(F)(F)C23CCN(S(N)(=O)=O)CC3)o1
B = NS(=O)(=O)N1CCC2(CC1)C[C@H]2c1noc(C2(c3cccc(C(F)(F)F)c3)CC2)n1
C = NS(=O)(=O)N1CCC2(CC1)C[C@H]2c1noc(C2(c3cc(F)ccc3F)CCC2)n1
List from greatest to least EC50. Record the ranking as a list of labels in the requested order.
C, B, A
